Consider the following compounds and their measured remaining at 0.5 h readings.
experiment: Metabolic stability in mouse liver microsomes assessed as compound remaining after 30 mins; format: ADME, Microsome; details: read-out: Stability
observation-type: remaining at 0.5 h (%)

CC(C)(Oc1c(Cl)cc(F)cc1Cl)C(=O)N[C@H]1C2CC3CC1C[C@](S(N)(=O)=O)(C3)C2 | 55
CC(C)(Oc1ccc(Cl)cc1F)C(=O)N[C@H]1C2CC3CC1C[C@](S(C)(=O)=O)(C3)C2 | 63
CC(C)(Oc1ccc(F)cc1Cl)C(=O)N[C@H]1C2CC3CC1C[C@](S(C)(=O)=O)(C3)C2 | 57
